assayed_system: Adrenergic receptor alpha-1 (Rattus norvegicus, UniProt P15823+P23944+P43140)
assay_details: Binding affinity towards Alpha-1 adrenergic receptor was determined by competitive displacement assays using rat brain homogenate with [3H]prazosin as the competitive ligand
Catalogue of molecules with associated log10(Ki)
Values are log10 of Ki in nM.

Answered examples (3):
chemical_string=O=C(O)[C@@H]1Cc2ccccc2N1C(=O)CN1CCN(Cc2ccc(Cl)cc2)CC1 val=2.66
chemical_string=COC(=O)[C@@H]1Cc2ccccc2N1C(=O)CN1CCN(Cc2ccc(C)cc2)CC1 val=2.00
chemical_string=CC[C@@H]1Cc2ccccc2N1C(=O)CN1CCN(Cc2ccc(C)cc2)CC1 val=3.12

Fetch value of log10(Ki) on Adrenergic receptor alpha-1 (Rattus norvegicus, UniProt P15823+P23944+P43140) for C=C[C@@H]1Cc2ccccc2N1C(=O)CN1CCN(Cc2ccc(Cl)cc2)CC1 .
3.34

Report measured log10(Ki) on Adrenergic receptor alpha-1 (Rattus norvegicus, UniProt P15823+P23944+P43140); entry: COc1ccc(Cl)cc1CN1CCN(CC(=O)N2c3ccccc3C[C@H]2C)CC1
2.99

Jot down log10(Ki) (Adrenergic receptor alpha-1 (Rattus norvegicus, UniProt P15823+P23944+P43140)) of COc1ccc(OC)c(CN2CCN(CC(=O)N3c4ccccc4C[C@H]3C)CC2)c1 .
3.22

Provide log10(Ki), system Adrenergic receptor alpha-1 (Rattus norvegicus, UniProt P15823+P23944+P43140), entry COc1cc(Cl)ccc1CN1CCN(CC(=O)N2c3ccccc3C[C@H]2C)CC1
3.03

---

Sequence of the target: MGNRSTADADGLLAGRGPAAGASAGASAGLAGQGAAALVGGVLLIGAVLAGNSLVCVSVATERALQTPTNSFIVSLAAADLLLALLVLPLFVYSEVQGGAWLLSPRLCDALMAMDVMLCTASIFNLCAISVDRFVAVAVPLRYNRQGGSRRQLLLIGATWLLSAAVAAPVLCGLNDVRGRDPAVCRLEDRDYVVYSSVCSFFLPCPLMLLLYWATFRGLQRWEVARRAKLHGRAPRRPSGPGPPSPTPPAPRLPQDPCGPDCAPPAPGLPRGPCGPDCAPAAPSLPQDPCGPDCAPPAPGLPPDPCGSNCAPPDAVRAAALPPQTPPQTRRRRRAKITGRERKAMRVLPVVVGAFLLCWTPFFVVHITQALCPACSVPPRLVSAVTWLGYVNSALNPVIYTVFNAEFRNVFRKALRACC
pKi: −log10 of the molar value.
TRUE means recorded pKi is 8 or above; FALSE means it is below 8.

chemical_string=COc1ccc(OC)c(CN2CCN(CC(=O)N3c4ccccc4C[C@H]3C)CC2)c1 class_assignment=FALSE
chemical_string=COc1cc(Cl)ccc1CN1CCN(CC(=O)N2c3ccccc3C[C@H]2C)CC1 class_assignment=TRUE
chemical_string=C[C@@H]1Cc2ccccc2N1C(=O)CN1CCN(Cc2ccccc2F)CC1 class_assignment=FALSE

With those in mind, consider the next molecule.
Is pKi at least 8? Consider CC[C@@H]1Cc2ccccc2N1C(=O)CN1CCN(Cc2ccc(C)cc2)CC1
TRUE

---

assayed_system: Adrenergic receptor alpha-1 (Rattus norvegicus, UniProt P15823+P23944+P43140)
assay_details: Binding affinity towards Alpha-1 adrenergic receptor was determined by competitive displacement assays using rat brain homogenate with [3H]prazosin as the competitive ligand
As shown below, each of these compounds has a reported Ki value.

# annotated cases, reported Ki shown
chemical_string=C[C@@H]1Cc2ccccc2N1C(=O)CN1CCN(Cc2cc(F)c(Cl)cc2F)CC1 observation_type=Ki val="> 10 µM"
chemical_string=C[C@@H]1Cc2ccccc2N1C(=O)CN1CCN(Cc2ccc3c(c2)OCO3)CC1 observation_type=Ki val="1.13 µM"

Name the recorded Ki of the item Cc1ccc(CN2CCN(CC(=O)N3c4ccccc4C[C@H]3C)CC2)cc1F in your answer.
0.807 µM

Fill in Ki for record CCOc1ccc(Cl)cc1CN1CCN(CC(=O)N2c3ccccc3C[C@H]2C)CC1
1.09 µM

Every entry's value here was drawn from ChEMBL document CHEMBL1134937.
